All figures here come from patent US20220089593A1.

Target: PDE9A2 enzyme (Homo sapiens)
Sequence (O76083 1-533 isoform O76083-2): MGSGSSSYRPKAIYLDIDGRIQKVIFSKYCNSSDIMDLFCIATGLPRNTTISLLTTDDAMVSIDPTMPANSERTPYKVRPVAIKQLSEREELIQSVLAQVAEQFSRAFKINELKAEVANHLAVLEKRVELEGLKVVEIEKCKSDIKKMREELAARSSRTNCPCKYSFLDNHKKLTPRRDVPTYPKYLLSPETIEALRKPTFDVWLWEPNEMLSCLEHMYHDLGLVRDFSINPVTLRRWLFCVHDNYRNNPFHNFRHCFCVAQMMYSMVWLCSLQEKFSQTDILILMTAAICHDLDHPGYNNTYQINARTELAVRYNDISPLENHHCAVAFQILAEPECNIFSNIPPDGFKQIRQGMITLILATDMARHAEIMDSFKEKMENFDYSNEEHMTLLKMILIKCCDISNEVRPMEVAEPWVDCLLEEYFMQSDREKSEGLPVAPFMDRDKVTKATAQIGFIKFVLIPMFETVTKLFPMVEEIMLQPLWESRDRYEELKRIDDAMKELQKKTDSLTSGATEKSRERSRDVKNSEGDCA
Recorded IC50, one value per entry.

compound: COC1(C)CCN(c2c(C#N)c(=O)[nH]c3cccnc23)CC1
IC50 (nM): 24
--
compound: COC1(C)CCN(c2c(C#N)c(=O)[nH]c3cnc(CO)cc23)CC1
IC50 (nM): 15
--
compound: CCc1ccc2[nH]c(=O)c(C#N)c(N3CCC(C)(OC)CC3)c2n1
IC50 (nM): 11
--
compound: COC1(C)CCN(c2c(C#N)c(=O)[nH]c3cnc(C(C)C)cc23)CC1
IC50 (nM): 50
--
compound: CC1(C)CCN(c2c(C#N)c(=O)[nH]c3ccccc23)CC1 [Compound I-11, reference compound]
IC50 (nM): 70
